Test system: Crude diglycosidase
METHOD DESCRIPTION: Examination of pH in the conversion into isoflavone aglycons by diglycosidase using soybean materials
Type: biochemical, Penicillium multicolor IAM7153
CONDITIONS: pH11.6, heat treatment of enzyme no, reaction time 1 h, 55° C.
READOUT TYPE: Decomposition efficiency of glycitin family in soymilk

COMPOUND: COc1cc2c(=O)c(-c3ccc(O)cc3)coc2cc1O[C@@H]1O[C@H](COC(C)=O)[C@@H](O)[C@H](O)[C@H]1O [acetylglycitin, 6″-O-acetylglycitin]
OBSERVED MEASUREMENT: not detected

COMPOUND: COc1cc2c(=O)c(-c3ccc(O)cc3)coc2cc1O[C@@H]1O[C@H](COC(=O)CC(=O)O)[C@@H](O)[C@H](O)[C@H]1O [malonylglycitin, 6″-O-malonylglycitin]
OBSERVED MEASUREMENT: 50.4

COMPOUND: COc1cc2c(=O)c(-c3ccc(O)cc3)coc2cc1O[C@@H]1O[C@H](CO)[C@@H](O)[C@H](O)[C@H]1O [glycitin]
OBSERVED MEASUREMENT: not detected

COMPOUND: COc1cc2c(=O)c(-c3ccc(O)cc3)coc2cc1O [glycitein]
OBSERVED MEASUREMENT: 49.6

---

Test system: Crude diglycosidase
METHOD DESCRIPTION: Examination of pH in the conversion into isoflavone aglycons by diglycosidase using soybean materials
Type: biochemical, Penicillium multicolor IAM7153
CONDITIONS: pH5.4; heat treatment of enzyme: yes; reaction time 6 h
READOUT TYPE: Decomposition efficiency of glycitin family in defatted soybean

SMILES ENTRY: COc1cc2c(=O)c(-c3ccc(O)cc3)coc2cc1O[C@@H]1O[C@H](COC(C)=O)[C@@H](O)[C@H](O)[C@H]1O
OBSERVED MEASUREMENT: not detected
//
SMILES ENTRY: COc1cc2c(=O)c(-c3ccc(O)cc3)coc2cc1O[C@@H]1O[C@H](COC(=O)CC(=O)O)[C@@H](O)[C@H](O)[C@H]1O
OBSERVED MEASUREMENT: 39.3%
//
SMILES ENTRY: COc1cc2c(=O)c(-c3ccc(O)cc3)coc2cc1O
OBSERVED MEASUREMENT: 60.7%
//
SMILES ENTRY: COc1cc2c(=O)c(-c3ccc(O)cc3)coc2cc1O[C@@H]1O[C@H](CO)[C@@H](O)[C@H](O)[C@H]1O
OBSERVED MEASUREMENT: not detected

---

System: Crude diglycosidase
METHOD DESCRIPTION: Examination of temperature in the conversion into isoflavone aglycons by diglycosidase using soybean materials
Type: biochemical, Penicillium multicolor IAM7153
CONDITIONS: 80 °C; heat treatment of enzyme: yes; 6 h
Entries and their Decomposition efficiency of glycitin family in concentrated soybean protein
READOUT TYPE: Decomposition efficiency of glycitin family in concentrated soybean protein (%)

COMPOUND: COc1cc2c(=O)c(-c3ccc(O)cc3)coc2cc1O[C@@H]1O[C@H](COC(=O)CC(=O)O)[C@@H](O)[C@H](O)[C@H]1O [malonylglycitin, 6″-O-malonylglycitin]
TARGET DESC: Crude diglycosidase
UNIT TAG: %
OBSERVED MEASUREMENT: 0.3
--
COMPOUND: COc1cc2c(=O)c(-c3ccc(O)cc3)coc2cc1O[C@@H]1O[C@H](COC(C)=O)[C@@H](O)[C@H](O)[C@H]1O [acetylglycitin, 6″-O-acetylglycitin]
TARGET DESC: Crude diglycosidase
UNIT TAG: %
OBSERVED MEASUREMENT: 34.8
--
COMPOUND: COc1cc2c(=O)c(-c3ccc(O)cc3)coc2cc1O[C@@H]1O[C@H](CO)[C@@H](O)[C@H](O)[C@H]1O [glycitin]
TARGET DESC: Crude diglycosidase
UNIT TAG: %
OBSERVED MEASUREMENT: 53.6
--
COMPOUND: COc1cc2c(=O)c(-c3ccc(O)cc3)coc2cc1O [glycitein]
TARGET DESC: Crude diglycosidase
UNIT TAG: %
OBSERVED MEASUREMENT: 11.4

---

Entries and their Decomposition efficiency: ratio of each glycoside/aglycon within its isoflavone family
System: Crude diglycosidase
METHOD DESCRIPTION: Examination of substrate concentration in the conversion into isoflavone aglycons by diglycosidase using soybean materials;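 also: percent of the isoflavone family total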
Type: biochemical, Penicillium multicolor IAM7153
CONDITIONS: concentrated soybean protein, substrate concentration 30%, heat treatment of enzyme no, reaction time 1 h
READOUT TYPE: Decomposition efficiency: ratio of each glycoside/aglycon within its isoflavone family (%)

SMILES ENTRY: O=c1c(-c2ccc(O)cc2)coc2cc(O[C@@H]3O[C@H](CO)[C@@H](O)[C@H](O)[C@H]3O)ccc12
UNIT TAG: %
OBSERVED MEASUREMENT: 2.7
--
SMILES ENTRY: COc1cc2c(=O)c(-c3ccc(O)cc3)coc2cc1O
UNIT TAG: %
OBSERVED MEASUREMENT: 61.5

---

System: Crude diglycosidase
METHOD DESCRIPTION: Examination of temperature in the conversion into isoflavone aglycons by diglycosidase using soybean materials
Type: biochemical, Penicillium multicolor IAM7153
Design: concentration or dose not given beside the values
CONDITIONS: 35 °C; heat treatment of enzyme: no; 3 h
READOUT TYPE: Decomposition efficiency of daidzin family in roasted soy flour

SMILES ENTRY: O=C(O)CC(=O)OC[C@H]1O[C@@H](Oc2ccc3c(=O)c(-c4ccc(O)cc4)coc3c2)[C@H](O)[C@@H](O)[C@@H]1O
OBSERVED MEASUREMENT: not detected
--
SMILES ENTRY: O=c1c(-c2ccc(O)cc2)coc2cc(O)ccc12
OBSERVED MEASUREMENT: 54.7%
--
SMILES ENTRY: CC(=O)OC[C@H]1O[C@@H](Oc2ccc3c(=O)c(-c4ccc(O)cc4)coc3c2)[C@H](O)[C@@H](O)[C@@H]1O
OBSERVED MEASUREMENT: 45.3%
--
SMILES ENTRY: O=c1c(-c2ccc(O)cc2)coc2cc(O[C@@H]3O[C@H](CO)[C@@H](O)[C@H](O)[C@H]3O)ccc12
OBSERVED MEASUREMENT: not detected

---

Test system: Crude diglycosidase
METHOD DESCRIPTION: Examination of pH in the conversion into isoflavone aglycons by diglycosidase using soybean materials
Format: biochemical, Penicillium multicolor IAM7153
Design: concentration or dose not given beside the values
CONDITIONS: pH2.6; heat treatment of enzyme: no; reaction time 1 h
Entries and their Decomposition efficiency of daidzin family in defatted soybean
READOUT TYPE: Decomposition efficiency of daidzin family in defatted soybean (%)

SMILES ENTRY: O=c1c(-c2ccc(O)cc2)coc2cc(O)ccc12
UNIT TAG: %
OBSERVED MEASUREMENT: 21.3

SMILES ENTRY: O=C(O)CC(=O)OC[C@H]1O[C@@H](Oc2ccc3c(=O)c(-c4ccc(O)cc4)coc3c2)[C@H](O)[C@@H](O)[C@@H]1O
UNIT TAG: %
OBSERVED MEASUREMENT: 41.2

SMILES ENTRY: O=c1c(-c2ccc(O)cc2)coc2cc(O[C@@H]3O[C@H](CO)[C@@H](O)[C@H](O)[C@H]3O)ccc12
UNIT TAG: %
OBSERVED MEASUREMENT: 37.5

---

System: Crude diglycosidase
METHOD DESCRIPTION: Examination of pH in the conversion into isoflavone aglycons by diglycosidase using soybean materials
Type: biochemical, Penicillium multicolor IAM7153
CONDITIONS: pH5, heat treatment of enzyme yes, reaction time 6 h, 55° C.
READOUT TYPE: Decomposition efficiency of glycitin family in roasted soy flour

SMILES ENTRY: COc1cc2c(=O)c(-c3ccc(O)cc3)coc2cc1O
OBSERVED MEASUREMENT: 9.4

SMILES ENTRY: COc1cc2c(=O)c(-c3ccc(O)cc3)coc2cc1O[C@@H]1O[C@H](COC(C)=O)[C@@H](O)[C@H](O)[C@H]1O
OBSERVED MEASUREMENT: 35.2

SMILES ENTRY: COc1cc2c(=O)c(-c3ccc(O)cc3)coc2cc1O[C@@H]1O[C@H](CO)[C@@H](O)[C@H](O)[C@H]1O
OBSERVED MEASUREMENT: 55.4

---

Tested on: Crude diglycosidase
METHOD DESCRIPTION: Examination of pH in the conversion into isoflavone aglycons by diglycosidase using soybean materials
Type: biochemical, Penicillium multicolor IAM7153
CONDITIONS: pH8.5, heat treatment of enzyme no, reaction time 6 h, 55° C.
READOUT TYPE: Decomposition efficiency of glycitin family in roasted soy flour

SMILES ENTRY: COc1cc2c(=O)c(-c3ccc(O)cc3)coc2cc1O[C@@H]1O[C@H](CO)[C@@H](O)[C@H](O)[C@H]1O
OBSERVED MEASUREMENT: 22.4
--
SMILES ENTRY: COc1cc2c(=O)c(-c3ccc(O)cc3)coc2cc1O
OBSERVED MEASUREMENT: 47.4
--
SMILES ENTRY: COc1cc2c(=O)c(-c3ccc(O)cc3)coc2cc1O[C@@H]1O[C@H](COC(C)=O)[C@@H](O)[C@H](O)[C@H]1O
OBSERVED MEASUREMENT: 30.2
